Recorded Multimer 100–250 kDa, % values for a group of proteins are listed next.
Target: the molecule itself
Assay: cross-linking; Ca2+-loaded proteins: 0.02% glutaric aldehyde, 16 h, 20 °C, protein 1 mg/mL, 20 mM Tricine-KOH pH 7.4, 50 mM KCl, 1 mM DTT, 1 mM CaCl2; SDS-PAGE, Coomassie, densitometry; self-association
Experimental readout: Multimer 100–250 kDa, % (%)

Protein	Experimental readout	Reported result
recombinant wild type human recoverin (natural protein, UniProt P35243 1-200, looked up, myristoyl group at the N terminus (degree of myristoylation exceeded 89%), recoverin, human, UniProt P35243; cDNA from Y79 retinoblastoma cells, amplified with primers from the start codon to the stop codon, subcloned into pET-15b(+) by NcoI and XhoI; also called rWT; rWT recoverin; source: E. coli pET15b rec/pBB131/BL21(DE3)RILLC+, purified (phenyl-Sepharose, Toyopearl SuperQ-650M)) MGNSKSGALSKEILEELQLNTKFSEEELCSWYQSFLKDCPTGRITQQQFQSIYAKFFPDTDPKAYAQHVFRSFDSNLDGTLDFKEYVIALHMTTAGKTNQKLEWAFSLYDVDGNGTISKNEVLEIVMAIFKMITPEDVKLLPDDENTPEKRAEKIWKYFGKNDDDKLTEKEFIEGTLANKEILRLIQFEPQKVKEKMKNA	Multimer 100–250 kDa, %	21.6
human recoverin mutant Y86A (natural protein, UniProt P35243 1-200, looked up, myristoylated (fraction of non-myristoylated forms did not exceed 16%), recoverin, human, UniProt P35243, N-terminal 'black' cluster mutant; Parent construct as m1; source: E. coli, expressed and purified similarly to the rWT protein (phenyl-Sepharose, Toyopearl SuperQ-650M)) MGNSKSGALSKEILEELQLNTKFSEEELCSWYQSFLKDCPTGRITQQQFQSIYAKFFPDTDPKAYAQHVFRSFDSNLDGTLDFKEAVIALHMTTAGKTNQKLEWAFSLYDVDGNGTISKNEVLEIVMAIFKMITPEDVKLLPDDENTPEKRAEKIWKYFGKNDDDKLTEKEFIEGTLANKEILRLIQFEPQKVKEKMKNA	Multimer 100–250 kDa, %	14.2
human recoverin mutant W156A (natural protein, UniProt P35243 1-200, looked up, myristoylated (fraction of non-myristoylated forms did not exceed 16%), recoverin, human, UniProt P35243, C-terminal 'gray' cluster mutant; Parent construct as m1; source: E. coli, expressed and purified similarly to the rWT protein (phenyl-Sepharose, Toyopearl SuperQ-650M)) MGNSKSGALSKEILEELQLNTKFSEEELCSWYQSFLKDCPTGRITQQQFQSIYAKFFPDTDPKAYAQHVFRSFDSNLDGTLDFKEYVIALHMTTAGKTNQKLEWAFSLYDVDGNGTISKNEVLEIVMAIFKMITPEDVKLLPDDENTPEKRAEKIAKYFGKNDDDKLTEKEFIEGTLANKEILRLIQFEPQKVKEKMKNA	Multimer 100–250 kDa, %	29.8
human recoverin mutant F106A (natural protein, UniProt P35243 1-200, looked up, myristoylated (fraction of non-myristoylated forms did not exceed 16%), recoverin, human, UniProt P35243, C-terminal 'black' cluster mutant; Parent construct as m1; source: E. coli, expressed and purified similarly to the rWT protein (phenyl-Sepharose, Toyopearl SuperQ-650M)) MGNSKSGALSKEILEELQLNTKFSEEELCSWYQSFLKDCPTGRITQQQFQSIYAKFFPDTDPKAYAQHVFRSFDSNLDGTLDFKEYVIALHMTTAGKTNQKLEWAASLYDVDGNGTISKNEVLEIVMAIFKMITPEDVKLLPDDENTPEKRAEKIWKYFGKNDDDKLTEKEFIEGTLANKEILRLIQFEPQKVKEKMKNA	Multimer 100–250 kDa, %	25
